- Method: yeast display, Sf9 membrane polyspecificity reagent, FACS + sequencing; frameworks hold sequencing errors
Metric: polyreactivity (PSR sort gate)

{"columns": ["Chain sequence", "Metric", "Data value"],
 "data": [
  ["QVQLVESGGGLVQAGGSLRLSCAASGRIFGYNAMGWYRQAPGKERDLVAAITTSGGSTYYADSVKGRFTISRDNAKNTVYLQMNSLKPEDTAVYYCARDSLQVFYPYASDDYWGQGTQVTVSS", "polyreactivity (PSR sort gate)", "low polyreactivity"],
  ["QVQLVESGGGLVQAGGSLRLSCAASGSTSPGYAMGWYRQAPGKERELVAAITFRGTRTYYADSVKGRFTISRDNAKNTVYLQMNSLKPEDTAVFYCNVVGYGPNRGRVDYWGQGTQVTVSS", "polyreactivity (PSR sort gate)", "high polyreactivity"],
  ["QVQLVESGGGLVQAGGSLRLSCAASGRTWSNAMGWYRQAPGKERELVAVITWDGVITYYADSVKGRFTISRDNAKNTVYLQMNSLKPEETAVYYCAATVYPGAGDYWGQGTQVTVSS", "polyreactivity (PSR sort gate)", "high polyreactivity"],
  ["QDQLVESGGGLVQAGGSLRLSCAASGSIFWVYVMGWYSQAPGKERELVAAITNGGSTDYADSVKGRFTISRDNAKNTVYLQLNSLKPEDTAVYYCAKRSPIWGRILITYDYWGQGTQVTVSS", "polyreactivity (PSR sort gate)", "low polyreactivity"],
  ["QVQLVESVGGLVQAGGSLRLSCAASGRIFPTYAMGSSRQAPGKERELVAAISRSGGRTYYADSVKGRFTSSRDNAKNTVYLQMNSLKPEDTAVYYCNAEGDPYVDFPSRSTGYDYWGQGTQVTVSS", "polyreactivity (PSR sort gate)", "high polyreactivity"],
  ["QVQLVESWGGLVQAGGSLRLSCAASGITFFTYAMGWYRQAPGKERELVAGISKTGGRSYYADSVKGRFTISRDNSKNTVYLQMNSLKPDDTAVYFCAAYFRSDYGYWGQGNQVTVSS", "polyreactivity (PSR sort gate)", "high polyreactivity"],
  ["QVQLVESGGGLVQAGGSLRLSCAASGRIFLGNVMGWYRQAPGKERELVAAISSGGSTNYADSVKGRFTISRDNAKNTVYLQMNSLKPEDTAVYYCAAYFVRDWKLYYYWGQGTQVTVSS", "polyreactivity (PSR sort gate)", "low polyreactivity"],
  ["QLQLVESGGVLVQAGASLRLSCAATVSTFIYYAMGWYRQAPGKEREVVAAISKRGGNTYYADSVKGRFTISRDNAKNTVYLQMNSLKPEDTAVYYCAARVYGTSRRYYSWGQGTQVTVSS", "polyreactivity (PSR sort gate)", "high polyreactivity"],
  ["QVQLVESGGGLVQAGGSLRLSCAASGRIFYGYAMGWYRQAPGKERELVASISRRGSSTYYADSVKGRFTISRDNAMNTVYLQMNSLKPEDTAVYYCAAGYYPFNYWGQGTQVTVSS", "polyreactivity (PSR sort gate)", "high polyreactivity"],
  ["QVQLVESGGGLVQEGGSLRLSCAASGSIFRKYAMGWYRQAPGKERELVAVITTDGSTNYADSVKGRFTISRDNAKNSVYLQMNSMNPEDTAVYYCNAVRSSIGTDIDYWGQGTQVTGSS", "polyreactivity (PSR sort gate)", "low polyreactivity"],
  ["QVQLVESGGGLVQAGGSLRLSCAASGRIFDIYAMGWYRPAPRKERELVAAITRRGGTTYADSVKGRFTISRDNAKNTVYLQMNSLKPEVNAVYYCAAGLYFRKWYSWTRYEYWGQGTQVTVSS", "polyreactivity (PSR sort gate)", "high polyreactivity"]
]}
